Listed below: Cmax values for each entry.
- experimentNotes: Cmax in Sprague-Dawley rat at 30 mg/kg, po
- Assay type: ADME, organism-based
- Parameters: dose 30 mg/kg, route oral
- studyConditions: in vivo
Report as a plain number; the unit ng/mL is understood.

[
  {
    "smilesNotation": "O=C(Cc1c(F)cccc1Cl)Nc1onc(-c2ccc(F)cc2)c1-c1ccncn1",
    "Cmax [ng/mL]": 0.88
  }
]

Exercise: Returns the measured Cmax for the input molecule. Input: Nc1onc(-c2ccc(F)cc2)c1-c1ccncn1
Key: 136

---

Measured AUC(0-inf) accompanies every entry in the list below.
- experimentNotes: AUC (0 to infinity) in Sprague-Dawley rat at 30 mg/kg, po
- Format: ADME, organism-based
- Parameters: time infinity, dose 30 mg/kg, route oral
- studyConditions: plasma
# number only, unit ng·h/mL dropped from output

[
  {
    "smilesNotation": "O=C(Cc1c(F)cccc1Cl)Nc1onc(-c2ccc(F)cc2)c1-c1ccncn1",
    "outcomeMeasure": "AUC(0-inf)",
    "resultUnit": "ng·h/mL",
    "measValue": 23.7
  }
]

As a next step, examine the compound that follows.
Exercise: Please look up its AUC(0-inf): Nc1onc(-c2ccc(F)cc2)c1-c1ccncn1
Key: 760

---

- experimentNotes: Half life in Sprague-Dawley rat at 30 mg/kg, po
- Type: ADME, organism-based
- Parameters: dose 30 mg/kg, route oral
- studyConditions: in vivo
outcomeMeasure: half-life (h)
A number alone suffices; assume h.

[
  {
    "smilesNotation": "O=C(Cc1c(F)cccc1Cl)Nc1onc(-c2ccc(F)cc2)c1-c1ccncn1",
    "half-life [h]": 18.7
  }
]

Exercise: Which half-life value belongs to Nc1onc(-c2ccc(F)cc2)c1-c1ccncn1 ?
Key: 0.98

---

- Test system: Liver
- experimentNotes: Intrinsic clearance in human liver S9 fraction
- Assay type: ADME, subcellular
log10 of CLint listing for selected compounds.
On a log10 scale: recorded CLint, unit µL/min/mg.

[
  {
    "smilesNotation": "Fc1ccc(-c2n[nH]c(CCCc3ccccc3)c2-c2ccncc2)cc1",
    "measValue": 1.91
  },
  {
    "smilesNotation": "O=C(CCCc1ccccc1)Nc1onc(-c2ccc(F)cc2)c1-c1ccncc1",
    "measValue": 2.43
  },
  {
    "smilesNotation": "CC(=O)Nc1onc(-c2ccc(F)cc2)c1-c1ccncc1",
    "measValue": 1.50
  }
]

Next:
Exercise: Quick one: log10 of CLint for O=C(CCc1ccccc1)Nc1onc(-c2ccc(F)cc2)c1-c1ccncc1 ?
Key: 2.66

---

- experimentNotes: Metabolic stability in human liver S9 fraction assessed as compound remaining at 1 uM after 15 mins by LC-MS/MS analysis
- Type: ADME, subcellular
- studyConditions: read-out: Stability
outcomeMeasure: remaining at 0.25 h, 1 µM (%)
Numbers only; they are read as %.

// solved cases for remaining at 0.25 h, 1 µM follow
[
  {
    "smilesNotation": "O=C(Cc1ccccc1)Nc1[nH]nc(-c2ccc(F)cc2)c1-c1ccncc1",
    "measValue": 86.2
  },
  {
    "smilesNotation": "Cn1nc(NC(=O)Cc2ccccc2)c(-c2ccncc2)c1-c1ccc(F)cc1",
    "measValue": 65
  },
  {
    "smilesNotation": "CC(=O)Nc1onc(-c2ccc(F)cc2)c1-c1ccncc1",
    "measValue": 82.5
  },
  {
    "smilesNotation": "O=C(Nc1onc(-c2ccc(F)cc2)c1-c1ccncc1)c1ccccc1",
    "measValue": 10.9
  },
  {
    "smilesNotation": "O=C(CCCc1ccccc1)Nc1onc(-c2ccc(F)cc2)c1-c1ccncc1",
    "measValue": 28.5
  }
]

Exercise: Would you mind telling me what remaining at 0.25 h, 1 µM value was observed for O=C(CCc1ccccc1)Nc1onc(-c2ccc(F)cc2)c1-c1ccncc1 ?
Key: 27.9

Exercise: remaining at 0.25 h, 1 µM lookup needed for Fc1ccc(-c2n[nH]c(CCCc3ccccc3)c2-c2ccncc2)cc1 , thanks.
Key: 50.3

Exercise: Which measured remaining at 0.25 h, 1 µM value corresponds to O=C(Cc1ccccc1)Nc1onc(-c2ccc(F)cc2)c1-c1ccncc1 ?
Key: 64.3
